Assay: recombinant barcode read abundance after kanamycin selection (control-corrected) (log10(CPM+1)); higher = more efficient recombination; sequences stand for … in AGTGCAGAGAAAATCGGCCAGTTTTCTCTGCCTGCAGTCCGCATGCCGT…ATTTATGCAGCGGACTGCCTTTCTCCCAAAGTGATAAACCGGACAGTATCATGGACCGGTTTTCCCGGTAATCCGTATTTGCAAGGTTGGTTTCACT; site = the 11-nt target
Entry flag: TRUE if recombinant barcode read abundance (log10) reaches 0.2; FALSE if it does not.

{"Construct sequence": "GGCTCCCTTTGGGTTCTAACCTGTTGCGGAA [GGCTCCCCTCC_LTGcore_TT_RTGcore_TT] (site GGCTCCCCTCC) (LTG core: TT, RTG core: TT)", "Category label": "FALSE"}
{"Construct sequence": "AAACATGAGTGGGTTCTAACCTGTTGCCTCT [AAACATGCTAG_LTGcore_AG_RTGcore_AG] (site AAACATGCTAG) (LTG core: AG, RTG core: AG)", "Category label": "FALSE"}
{"Construct sequence": "GCGGGACCTTGGGTTCTAACCTGTTGCCTGC [GCGGGACCTAG_LTGcore_CT_RTGcore_GC] (site GCGGGACCTAG) (LTG core: CT, RTG core: GC)", "Category label": "TRUE"}
{"Construct sequence": "AAACACACTTGGGTTCTAACCTGTTGCCTTG [AAACACACTAG_LTGcore_CT_RTGcore_CA] (site AAACACACTAG) (LTG core: CT, RTG core: CA)", "Category label": "TRUE"}
{"Construct sequence": "GGGCGTGGCTGGGTTCTAACCTGTTGCCTGC [GGGCGTGCTAG_LTGcore_GC_RTGcore_GC] (site GGGCGTGCTAG) (LTG core: GC, RTG core: GC)", "Category label": "FALSE"}
{"Construct sequence": "ACGGGACTGTGGGTTCTAACCTGTTGCAGAG [ACGGGACCTCT_LTGcore_TG_RTGcore_CT] (site ACGGGACCTCT) (LTG core: TG, RTG core: CT)", "Category label": "TRUE"}
{"Construct sequence": "GTCGCCCGGTGGGTTCTAACCTGTTGCTAAG [GTCGCCCCTTA_LTGcore_GG_RTGcore_CT] (site GTCGCCCCTTA) (LTG core: GG, RTG core: CT)", "Category label": "FALSE"}
{"Construct sequence": "AAACACACTTGGGTTCTAACCTGTTGCCTCT [AAACACACTAG_LTGcore_CT_RTGcore_AG] (site AAACACACTAG) (LTG core: CT, RTG core: AG)", "Category label": "TRUE"}
{"Construct sequence": "GAGGCCTGGTGGGTTCTAACCTGTTGCCACC [GAGGCCTCTTG_LTGcore_GG_RTGcore_GG] (site GAGGCCTCTTG) (LTG core: GG, RTG core: GG)", "Category label": "TRUE"}
{"Construct sequence": "TTATAAATATGGGTTCTAACCTGTTGCCTTA [TTATAAACTAG_LTGcore_TA_RTGcore_TA] (site TTATAAACTAG) (LTG core: TA, RTG core: TA)", "Category label": "TRUE"}
{"Construct sequence": "AAACATGCTTGGGTTCTAACCTGTTGCCTCT [AAACATGCTAG_LTGcore_CT_RTGcore_AG] (site AAACATGCTAG) (LTG core: CT, RTG core: AG)", "Category label": "TRUE"}

====

Examples of sequences with documented recombinant UMI read abundance (log10) follow.
Assay: recombinant UMI read abundance after kanamycin selection (control-corrected) (log10(CPM+1)); higher = more efficient recombination; extreme values may be limits of the assay; sequences stand for … in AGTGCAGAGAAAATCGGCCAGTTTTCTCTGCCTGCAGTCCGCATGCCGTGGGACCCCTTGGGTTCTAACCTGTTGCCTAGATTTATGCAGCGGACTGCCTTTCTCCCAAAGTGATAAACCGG…AGGTTGGTTTCACT; site = the 11-nt donor

{"Construct sequence": "CTACCCGCATGGACCGGTTTTCCCGGTAATCCGTATTTGCT (site CTACCCGCTAG)", "recombinant UMI read abundance (log10)": 1.43}
{"Construct sequence": "CGTGGAACATGGACCGGTTTTCCCGGTAATCCGTATTTGCT (site CGTGGAACTAC)", "recombinant UMI read abundance (log10)": 0.00778}
{"Construct sequence": "GGGACTACATGGACCGGTTTTCCCGGTAATCCGTATTTGAC (site GGGACTACTGT)", "recombinant UMI read abundance (log10)": 1.48}
{"Construct sequence": "TCAAAGACATGGACCGGTTTTCCCGGTAATCCGTATTTGCG (site TCACAGACTCG)", "recombinant UMI read abundance (log10)": 0.546}
{"Construct sequence": "GGATAGACATGGACCGGTTTTCCCGGTAATCCGTATTTGCC (site GGTTAGACTGG)", "recombinant UMI read abundance (log10)": 1.09}

====

Examples of sequences with documented recombinant UMI read abundance (log10) follow.
Assay: recombinant UMI read abundance after kanamycin selection (control-corrected) (log10(CPM+1)); higher = more efficient recombination; extreme values may be limits of the assay; sequences stand for … in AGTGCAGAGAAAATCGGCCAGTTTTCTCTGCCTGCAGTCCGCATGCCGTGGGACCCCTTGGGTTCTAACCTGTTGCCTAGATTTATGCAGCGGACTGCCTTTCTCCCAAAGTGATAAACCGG…AGGTTGGTTTCACT; site = the 11-nt donor

{"Construct sequence": "TGGACACCATGGACCGGTTTTCCCGGTAATCCGTATTTGAC (site TGCACACCTGT)", "recombinant UMI read abundance (log10)": 0}
{"Construct sequence": "AACTTGACATGGACCGGTTTTCCCGGTAATCCGTATTTGCT (site GACTTGACTAG)", "recombinant UMI read abundance (log10)": 0.665}
{"Construct sequence": "ACTAGAACATGGACCGGTTTTCCCGGTAATCCGTATTTGAG (site TCTAGAACTCT)", "recombinant UMI read abundance (log10)": 0.854}
{"Construct sequence": "TCGCCGGCATGGACCGGTTTTCCCGGTAATCCGTATTTGGC (site TCGCCGGCTGC)", "recombinant UMI read abundance (log10)": 0}
{"Construct sequence": "GTGCGATCATGGACCGGTTTTCCCGGTAATCCGTATTTGAC (site GTGCGATCTGT)", "recombinant UMI read abundance (log10)": 1.92}
{"Construct sequence": "GGTACCTCATGGACCGGTTTTCCCGGTAATCCGTATTTGAG (site GGTACCTCTCT)", "recombinant UMI read abundance (log10)": 0.374}
{"Construct sequence": "GTATGCACATGGACCGGTTTTCCCGGTAATCCGTATTTGTA (site GTATGGACTTA)", "recombinant UMI read abundance (log10)": 0.0258}
{"Construct sequence": "TGAATTTCATGGACCGGTTTTCCCGGTAATCCGTATTTGAG (site TGAATTTCTCT)", "recombinant UMI read abundance (log10)": 0.492}
{"Construct sequence": "CCCTAGCCATGGACCGGTTTTCCCGGTAATCCGTATTTGCG (site CCCTAGCCTCG)", "recombinant UMI read abundance (log10)": 0.0131}

====

Experiment: recombinant UMI read abundance after kanamycin selection (control-corrected) (log10(CPM+1)); higher = more efficient recombination; extreme values may be limits of the assay; sequences stand for … in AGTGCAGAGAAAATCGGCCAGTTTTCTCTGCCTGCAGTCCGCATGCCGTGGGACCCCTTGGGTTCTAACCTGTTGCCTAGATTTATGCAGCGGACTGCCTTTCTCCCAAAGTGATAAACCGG…AGGTTGGTTTCACT; site = the 11-nt donor

{"Construct sequence": "CGGAATCCATGGACCGGTTTTCCCGGTAATCCGTATTTGCA (site CGGAATCCTTG)", "recombinant UMI read abundance (log10)": 0.628}
{"Construct sequence": "AGGTTCCCATGGACCGGTTTTCCCGGTAATCCGTATTTGGG (site AGGTTCCCTCG)", "recombinant UMI read abundance (log10)": 0.0155}
{"Construct sequence": "AGATCAGCATGGACCGGTTTTCCCGGTAATCCGTATTTGGG (site AGATCAGCTCC)", "recombinant UMI read abundance (log10)": 0.224}
{"Construct sequence": "TGTTCCCCATGGACCGGTTTTCCCGGTAATCCGTATTTGCA (site TGTTCCCCTTC)", "recombinant UMI read abundance (log10)": 0.0115}
{"Construct sequence": "TGCTAGGCATGGACCGGTTTTCCCGGTAATCCGTATTTGGT (site TGCTACGCTAC)", "recombinant UMI read abundance (log10)": 0.0185}
{"Construct sequence": "GAATTGCCATGGACCGGTTTTCCCGGTAATCCGTATTTGCA (site GAATCGCCTTG)", "recombinant UMI read abundance (log10)": 0}
{"Construct sequence": "GCTAATGCATGGACCGGTTTTCCCGGTAATCCGTATTTGCC (site GCTAGTGCTGG)", "recombinant UMI read abundance (log10)": 0}
{"Construct sequence": "GATTATTCATGGACCGGTTTTCCCGGTAATCCGTATTTGCT (site GATTATTCTAG)", "recombinant UMI read abundance (log10)": 1.96}
{"Construct sequence": "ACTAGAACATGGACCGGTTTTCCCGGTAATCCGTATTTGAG (site ACTAGAACTCG)", "recombinant UMI read abundance (log10)": 0}

Data origin: the supplement of paper PMC11208160
